# TARGET: T1, recombinant MS4A4A soluble polypeptide JS5
# T1 construct: also called JS5.His
# PROTOCOL_DESCRIPTION: ELISA, 0.11 ug/ml antibody
Known ELISA OD of a selection of binders

- BINDER: "anti-MS4A4A antibody 4A-314 (antibody, V domains shown, full human IgG) VH: QVQLVQSGAEVKKPGASVKVSCKASGYTFTNYWMQWVRQAPGQGLEWMGTTLPGHGDTRYAQKFQGRVTMTRDTSTSTVYMELSSLRSEDTAVYYCAREEVYYGFRSYWYFDVWGRGTLVTVSS VL: EIVLTQSPATLSLSPGERATLSCRASESVDNYGVSRMNWYQQKPGQAPRLLIYGASNQGSGIPARFSGSGSGTDFTLTISSLEPEDFAVYYCQQSKEVPPTFGGGTKVEIK"
  ELISA OD: 0.399
- BINDER: "anti-MS4A4A antibody 4A-355 (antibody, V domains shown, full human IgG) VH: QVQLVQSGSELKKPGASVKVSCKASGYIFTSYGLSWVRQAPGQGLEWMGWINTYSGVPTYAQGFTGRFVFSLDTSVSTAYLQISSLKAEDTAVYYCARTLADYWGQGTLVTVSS VL: DVVMTQSPLSLPVTLGQPASISCKSSRSLLYSSGKTYLSWFQQRPGQSPRRLIYLVSKLDSGVPDRFSGSGSGTDFTLKISRVEAEDVGVYYCWQGIDFHQTFGGGTKVEIK"
  ELISA OD: 0.721

Now look at this one.
Which ELISA OD is listed for anti-MS4A4A antibody 4A-380 (antibody, V domains shown) VH: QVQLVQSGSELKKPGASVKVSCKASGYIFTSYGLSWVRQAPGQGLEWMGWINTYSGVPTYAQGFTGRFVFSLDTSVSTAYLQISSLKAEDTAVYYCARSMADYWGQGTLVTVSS VL: DVVMTQSPLSLPVTLGQPASISCKSSRSLLYSSGKTYLSWFQQRPGQSPRRLIYLVSKLDSGVPDRFSGSGSGTDFTLKISRVEAEDVGVYYCWQGIDFHQTFGGGTKVEIK ?
0.654
